Reference source for all entries: patent US20210032312A1

- measured_on: T1, human CD8 alpha (CD8A) on primary human CD8+ T cells (human, UniProt P01732 22-235)
- T1 construct: whole, on cells; also called hCD8A
- assay_protocol: flow cytometry, human CD8+ T cells, 2 uM FN3
Quick reference for Human T-cell Binding 2 uM (MFI) among some binders
Please respond with the number in MFI and leave the unit unwritten.

1) P282FR9P1361_F2 (designed binder, FN3 domain) LPAPKNLVVSRVTEDSARLSWTAPDAAFDSFDIWYAEYGYPGEAIVLTVPGSERSYDLTGLKPGTEYDVAISGIKGGPRSYPLSAIFTT; 4610

Give a short answer stating reported Human T-cell Binding 2 uM (MFI) for P282CR9P1358_C5 (designed binder, FN3 domain) LPAPKNLVVSRVTEDSARLSWTAPDAAFDSFLIAYPEWPDSGEAIVLTVPGSERSYDLTGLKPGTEYAVFIWGVKGGPLSHPLSAIFTT .
2710

Quick one: give measured Human T-cell Binding 2 uM (MFI) for P282BR9P1357_A9 (designed binder, FN3 domain) LPAPKNLVVSRVTEDSARLSWKANRTTDLHFDSFLIQYQESEKVGEAIVLTVPGSERSYDLTGLKPGTEYTVSIYGVDVQYDGQQPLYSNPLSAIFTT
3120

Supply Human T-cell Binding 2 uM (MFI) value. Item: P282CR9P1358_D10 (designed binder, FN3 domain) LPAPKNLVVSRVTEDSARLSWTAPDAAFDSFLISYPEYPPPGEAIVLTVPGSERSYDLTGLKPGTEYFVIIFGVKGGDTSWPLSAIFTT
28600

Quick one: give measured Human T-cell Binding 2 uM (MFI) for P282DR9P1359_H5 (designed binder, FN3 domain) LPAPKNLVVSRVTEDSARLSWTAPDAAFDSFNIAYPEALHPGYGEAIVLTVPGSERSYDLTGLKPGTEYFVVIYGVKGGTNSEPLSAIFTT
919

Identify measured Human T-cell Binding 2 uM (MFI) corresponding to P282AR9P1356_H6 (designed binder, FN3 domain) LPAPKNLVVSRVTEDSARLSWRKRANSFDSFLIQYQESEKVGEAIVLTVPGSERSYDLTGLKPGTEYTVSIYGVHVEYDQHGRPRWSNPLSAIFTT
6650
